# target of assay: Glutamate receptor ionotropic AMPA (Homo sapiens, UniProt P42261+P42262+P42263+P48058)
property measured: pKi
Numbers only, as −log10 of the molar value.

record smiles | pKi
CC(=O)NCc1ccn(-c2cc3c(cc2C(F)(F)F)[nH]c(=O)c(=O)n3CC(=O)O)c1 | 7.12
O=Cc1ccn(-c2cc3nc(O)c(O)nc3cc2C(F)(F)F)c1 | 6.19
O=C(O)Cn1c(=O)c(=O)[nH]c2cc([N+](=O)[O-])c(-n3ccc(CNC(=O)CCc4ccccc4)c3)cc21 | 6.30

Give pKi for each listed item.
1. NCc1ccn(-c2cc3nc(O)c(O)nc3cc2[N+](=O)[O-])c1
2. O=C(O)Cn1c(=O)c(=O)[nH]c2cc(C(F)(F)F)c(-n3ccc(CNC(=O)Nc4ccc(Br)cc4)c3)cc21
3. O=C(O)Cn1c(=O)c(=O)[nH]c2cc(C(F)(F)F)c(-n3cccc3)cc21
4. O=[N+]([O-])c1cc2nc(O)c(O)nc2cc1-n1cccc1
5. O=C(O)Cn1c(=O)c(=O)[nH]c2cc([N+](=O)[O-])c(-n3ccc(CC(=O)N4CCCCC4)c3)cc21

5.70
8.40
6.74
6.40
5.52

For record O=C(O)Cn1c(=O)c(=O)[nH]c2cc(C(F)(F)F)c(-n3ccc(/C=N/OCc4ccccc4)c3)cc21 the listed pKi is 6.60

====

For Glutamate receptor ionotropic AMPA (Homo sapiens, UniProt P42261+P42262+P42263+P48058), measured Ki is reported for the entries below.
Numbers only, in nM.

record smiles | property measured | result number
O=C(O)Cn1c(=O)c(=O)[nH]c2cc([N+](=O)[O-])c(-n3ccc(CNC(=O)Nc4ccccc4)c3)cc21 | Ki | 71
O=C(O)Cn1c(=O)c(=O)[nH]c2cc([N+](=O)[O-])c(-n3ccc(CNC(=O)c4ccncc4)c3)cc21 | Ki | 280

Consider the additional compound presented here.
For record CN(Cc1ccccc1)Cc1ccn(-c2cc3nc(O)c(O)nc3cc2[N+](=O)[O-])c1 the listed Ki is 880

====

# target of assay: Glutamate receptor ionotropic AMPA (Homo sapiens, UniProt P42261+P42262+P42263+P48058)
pKi: −log10 of the molar value.
Label satisfied for high-side pKi (at or above 7) and not satisfied for low-side pKi (below it).

Worked cases, answers included:
record smiles | target of assay | cat
CCN(CC)Cc1ccn(-c2cc3c(cc2C(F)(F)F)[nH]c(=O)c(=O)n3CC(=O)O)c1 | Glutamate receptor ionotropic AMPA (Homo sapiens, UniProt P42261+P42262+P42263+P48058) | not satisfied
O=C(O)Cn1c(=O)c(=O)[nH]c2cc(C(F)(F)F)c(-n3ccc(CNC(=O)Nc4ccccc4)c3)cc21 | Glutamate receptor ionotropic AMPA (Homo sapiens, UniProt P42261+P42262+P42263+P48058) | satisfied
Cc1ccc(C)n1-c1cc2nc(O)c(O)nc2cc1[N+](=O)[O-] | Glutamate receptor ionotropic AMPA (Homo sapiens, UniProt P42261+P42262+P42263+P48058) | not satisfied
NCc1ccn(-c2cc3c(cc2[N+](=O)[O-])[nH]c(=O)c(=O)n3CC(=O)O)c1 | Glutamate receptor ionotropic AMPA (Homo sapiens, UniProt P42261+P42262+P42263+P48058) | not satisfied
Cc1ccc(C)n1-c1cc2nc(O)c(O)nc2cc1C(F)(F)F | Glutamate receptor ionotropic AMPA (Homo sapiens, UniProt P42261+P42262+P42263+P48058) | not satisfied

Does the reported pKi for O=C(O)Cn1c(=O)c(=O)[nH]c2cc([N+](=O)[O-])c(-n3ccc(/C=N/OCc4ccccc4)c3)cc21 fall at or above the 7 mark?
not satisfied

Does the reported pKi for Cc1ccc(C)n1-c1cc2c(cc1C(F)(F)F)[nH]c(=O)c(=O)n2CC(=O)O fall at or above the 7 mark?
not satisfied
